- experimentalProtocol: Safety of VD1207 analogues, intraperitoneal administration over 4 days
- Type: in vivo
- Set-up: key: —: “-” indicates no abnormality; “↑” and “↓” indicate an increase and a decrease, respectively; “↑” and “↓” indicate an increase and a decrease, respectively
- measurementContext: 2 mg/kg i.p. 4 days
experimentalEndpoint: Weight (liver)

| molecule | result |
| --- | --- |
| CCC1OC12C(O)CC(C(CC(C)C)C(=O)c1cc(C(OC)C(C)C)c(O)c(C=O)c1O)OC2O (single isomer, unassigned) [VD1207 F] | ↑ |
| CCCC(C(=O)c1cc(CC(C)C)c(O)c(C=O)c1O)C1CC(O)C2(OC2CC)C(O)O1 (stereo not shown) [VD1207 D] | ↑ |
| CCC1OC12C(O)CC(C(CC(C)C)C(=O)c1cc(CC(C)C)c(O)c(C=O)c1O)OC2O (stereo not shown) [VD1207 G2] | ↑ |
| CCCC(C(=O)c1cc(C(OC)C(C)C)c(O)c(C=O)c1O)C1CC(O)C2(OC2CC)C(O)O1 (single isomer, unassigned) [VD1207 B] | ↑ |

====

- experimentalProtocol: Safety of VD1207 analogues, intraperitoneal administration over 4 days
- Format: in vivo
- Parameters: key: —: “-” indicates no abnormality; “↑” and “↓” indicate an increase and a decrease, respectively; “↑” and “↓” indicate an increase and a decrease, respectively
- measurementContext: 1 mg/kg i.p. 4 days
experimentalEndpoint: Blood (WBC)

Worked cases, Blood (WBC) given:
| molecule | result |
| --- | --- |
| CCC1OC12C(O)CC(C(CC(C)C)C(=O)c1cc(C(OC)C(C)C)c(O)c(C=O)c1O)OC2O (single isomer, unassigned) [VD1207 F] | — |
| CCCC(C(=O)c1cc(C(OC)C(C)C)c(O)c(C=O)c1O)C1CC(O)C2(OC2CC)C(O)O1 (single isomer, unassigned) [VD1207 C] | — |
| CCC1OC12C(O)CC(C(CC(C)C)C(=O)c1cc(CC(C)C)c(O)c(C=O)c1O)OC2O (stereo not drawn) [VD1207 G2] | — |
| CCC1OC12C(O)CC(C(CC(C)C)C(=O)c1cc(C(OC)C(C)C)c(O)c(C=O)c1O)OC2O (single isomer, unassigned) [VD1207 E] | — |
| CCCC(C(=O)c1cc(CC(C)C)c(O)c(C=O)c1O)C1CC(O)C2(OC2CC)C(O)O1 (stereo not drawn) [VD1207 D] | — |

Then this molecule:
Qu. Please look at this molecule and report its Blood (WBC): CCCC(C(=O)c1cc(C(OC)C(C)C)c(O)c(C=O)c1O)C1CC(O)C2(OC2CC)C(O)O1 (single isomer, unassigned) [VD1207 B]
Ans. —
